# Test system: ICR mice
# procedure_details: Acute toxicity test
# Type: in vivo
# experimental_setup: female, 54.9 mg/kg i.p.
Entries and their measured Number of dead mice, 4th day follow.
quantity: Number of dead mice, 4th day

CC1[O][Pt][O]C1=O.NCC1OC2(CCCC2)OC1CN (centres unmarked) [Example 15]	1/5
CC1[O][Pt][O]C1=O.CCC1OC(CN)C(CN)O1 (centres unmarked) [Example 18]	2/5
CC(C)C1OC(CN)C(CN)O1.CC1[O][Pt][O]C1=O (centres unmarked) [Example 19]	2/5
CCC1(CC)OC2C[NH2+][Pt-2]3([NH2+]CC2O1)[O]CC(=O)[O]3 (centres unmarked) [Example 8]	2/5
CCC1(C)OC2C[NH2+][Pt-2]3([NH2+]CC2O1)[O]CC(=O)[O]3 (centres unmarked) [Example 9]	3/5

Reference source for all entries: patent US5395947A
